molecular target: HTRA1, Q92743; assay: holdup assay; parameters: key: below the threshold = too weak to quantify, mostly under pKd 3.1 to 4; details: plain residues with an end cap or a label only (N-terminal biotin on a linker: ttds)
Sequence (Q92743 360-477): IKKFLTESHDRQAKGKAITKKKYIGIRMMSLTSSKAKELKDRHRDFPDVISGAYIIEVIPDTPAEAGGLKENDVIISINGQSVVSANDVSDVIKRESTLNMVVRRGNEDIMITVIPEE
QUANTITY MEASURED: pKd

Examples with answers:
>  <BINDER>
QRPYRRESEI [KCNJ12, Q14500]

>  <pKd>
below the threshold

$$$$
>  <BINDER>
PSRDRKETSI [RALBP1, Q15311]

>  <pKd>
below the threshold

$$$$
>  <BINDER>
KLVIKTETTV [RASSF6, Q6ZTQ3]

>  <pKd>
3.75

$$$$
>  <BINDER>
GRLLGLETNV [ARHGEF26, Q96DR7]

>  <pKd>
below the threshold

$$$$

// query For SRSRRRETAL [HPV33-E6, P06427] , what is its reported pKd?
// result 3.48

// query Same again, this time with SHSSKGETAV [FZD7, O75084]
// result below the threshold

// query Same again, this time with SGGKRKETLV [NET1, Q7Z628]
// result below the threshold

// query Same again, this time with PFRSRSPSEV [GPR6, P46095]
// result below the threshold
